This collection of values is drawn from patent US20060194837A1.

- System Under Test: Rat SERT (Rattus norvegicus, UniProt P31652)
- Construct: A rat brain without cerebellum (Zivic Laboratories, Inc.—Pittsburgh, Pa.) was homogenized; tissue Zivic Laboratories, Inc; host or cells: rat brain without cerebellum, membranes
- Sequence (P31652 whole entry): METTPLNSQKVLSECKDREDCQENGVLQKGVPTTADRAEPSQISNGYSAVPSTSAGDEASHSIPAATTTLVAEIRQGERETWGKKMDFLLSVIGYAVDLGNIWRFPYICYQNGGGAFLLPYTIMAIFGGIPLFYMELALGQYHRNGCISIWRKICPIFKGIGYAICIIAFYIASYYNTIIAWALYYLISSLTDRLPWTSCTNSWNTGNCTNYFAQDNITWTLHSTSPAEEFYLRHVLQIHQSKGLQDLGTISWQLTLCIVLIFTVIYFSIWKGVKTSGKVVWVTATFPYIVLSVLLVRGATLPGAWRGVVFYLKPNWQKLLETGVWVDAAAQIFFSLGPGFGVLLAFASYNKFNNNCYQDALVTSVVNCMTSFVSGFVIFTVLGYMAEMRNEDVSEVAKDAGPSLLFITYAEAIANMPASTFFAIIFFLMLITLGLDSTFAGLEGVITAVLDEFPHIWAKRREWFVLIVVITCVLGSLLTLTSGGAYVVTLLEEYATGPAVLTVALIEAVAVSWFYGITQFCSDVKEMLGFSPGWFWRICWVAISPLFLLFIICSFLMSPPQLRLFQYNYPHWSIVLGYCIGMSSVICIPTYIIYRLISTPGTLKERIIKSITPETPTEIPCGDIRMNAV
- Assay: Rat brain SERT binding ([3H]-citalopram displacement)
- Condition Label: rat brain membranes without cerebellum, 0.6 nM [3H]-citalopram, 60 min at 25° C.; read-out: Rat SERT Ki

Compound | Ki
COc1ccc(C2CN(C)Cc3cc(OC4CCN(C(C)C)CC4)ccc32)cc1F (centres unmarked) | 10 nM
COc1ccc(C2CN(C)Cc3cc(OCCCN4CCC(CO)CC4)ccc32)cc1 (centres unmarked) | 3 nM
COc1ccc(C2CN(C)Cc3cc(OCCCN4CCC(F)CC4)ccc32)c(F)c1 (racemic) [Example 139] | 6 nM
C[C@H]1COCCN1CCCOc1ccc2c(c1)CN(C)CC2c1ccc(N2CCOCC2)cc1 (some centres unmarked) | 50 nM
CN1Cc2cc(OCCCN3CCC(F)CC3)ccc2C(c2ccccc2)C1 (centres unmarked) | 13 nM
COc1ccc(C2CN(C)Cc3cc(OCCCN4CCC[C@H]4C(F)(F)F)ccc32)cc1 (some centres unmarked) | 12 nM
CSc1ccc(C2CN(C)Cc3cc(OCC4CN(C5CC5)CCO4)ccc32)cc1 (mixture of isomers) | 11 nM
COc1ccc(C2CN(C)Cc3cc(OCCCN4CCOC[C@@H]4C)ccc32)c(F)c1 (some centres unmarked) | 4 nM
